# tested.on: Cholinesterases; ACHE & BCHE (Homo sapiens) (UniProt P06276+P22303)
# Sequence (P06276 whole entry, looked up): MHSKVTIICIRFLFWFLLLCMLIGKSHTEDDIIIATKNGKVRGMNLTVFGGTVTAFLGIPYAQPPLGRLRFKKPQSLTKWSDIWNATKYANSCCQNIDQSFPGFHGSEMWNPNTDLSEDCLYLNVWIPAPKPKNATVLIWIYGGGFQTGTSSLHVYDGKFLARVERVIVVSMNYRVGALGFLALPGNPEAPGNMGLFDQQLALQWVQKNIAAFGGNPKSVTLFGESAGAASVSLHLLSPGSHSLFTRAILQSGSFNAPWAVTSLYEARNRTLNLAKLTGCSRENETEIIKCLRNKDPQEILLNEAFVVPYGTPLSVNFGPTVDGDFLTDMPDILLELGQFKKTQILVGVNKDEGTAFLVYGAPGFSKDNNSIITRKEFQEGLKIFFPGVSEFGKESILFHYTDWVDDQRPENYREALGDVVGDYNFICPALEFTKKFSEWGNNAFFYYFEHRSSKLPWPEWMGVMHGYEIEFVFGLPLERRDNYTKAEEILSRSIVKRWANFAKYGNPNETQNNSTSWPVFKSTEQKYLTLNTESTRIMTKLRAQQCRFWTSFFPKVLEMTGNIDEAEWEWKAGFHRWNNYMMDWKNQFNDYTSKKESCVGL
# Sequence (P22303 whole entry, looked up): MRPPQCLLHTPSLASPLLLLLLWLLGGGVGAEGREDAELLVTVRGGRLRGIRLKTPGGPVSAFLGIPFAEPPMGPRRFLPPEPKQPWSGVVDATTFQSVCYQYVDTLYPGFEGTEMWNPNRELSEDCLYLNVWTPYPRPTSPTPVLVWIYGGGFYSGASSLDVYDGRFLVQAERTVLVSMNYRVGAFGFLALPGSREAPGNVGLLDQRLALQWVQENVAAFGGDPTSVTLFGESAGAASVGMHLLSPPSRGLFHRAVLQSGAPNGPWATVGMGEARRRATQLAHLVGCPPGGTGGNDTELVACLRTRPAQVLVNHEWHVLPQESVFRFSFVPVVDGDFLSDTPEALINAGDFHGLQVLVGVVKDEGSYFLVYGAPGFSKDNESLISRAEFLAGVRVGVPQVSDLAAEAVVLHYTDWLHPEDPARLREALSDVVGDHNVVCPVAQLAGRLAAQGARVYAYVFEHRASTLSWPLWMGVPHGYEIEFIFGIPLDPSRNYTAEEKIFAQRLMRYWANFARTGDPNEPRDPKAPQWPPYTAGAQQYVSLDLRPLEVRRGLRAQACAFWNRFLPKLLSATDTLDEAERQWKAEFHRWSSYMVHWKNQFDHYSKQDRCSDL
# procedure.summary: Selectivity ratio of IC50 for BChE (unknown origin) to IC50 for AChE (unknown origin)
# label 1 = Ratio IC50 below 2 (exclusive); label 0 = Ratio IC50 at/above 2

Hi there! Is Ratio IC50 for CCCN(CCC)CCCCCOc1ccc(C(=O)/C=C/c2ccccc2)cc1 below 2, do you know?
label 0

For CCN(CC)CCOc1ccc(C(=O)/C=C/c2ccccc2)cc1 , is the recorded Ratio IC50 below the cut-off of 2?
label 0

###

# tested.on: UniProtKB P22303
# Sequence (P22303 whole entry): as the sequence (P22303 whole entry, looked up) above
pIC50: −log10 of the molar value.
Response key: Fulfilled means pIC50 >= 5; Not fulfilled means pIC50 < 5.

Worked examples, 6 compounds total:
[[record]]
input_smiles = "CCCN(CCC)CCCCOc1ccc(C(=O)/C=C/c2ccccc2)cc1"
group_label = "Fulfilled"

[[record]]
input_smiles = "CCCN(CCC)CCCOc1ccc(C(=O)/C=C/c2ccccc2)cc1"
group_label = "Not fulfilled"

[[record]]
input_smiles = "CN(C)CCOc1ccc(C(=O)/C=C/c2ccccc2)cc1"
group_label = "Fulfilled"

[[record]]
input_smiles = "CCCCN(CCCC)CCCOc1ccc(C(=O)/C=C/c2ccccc2)cc1"
group_label = "Not fulfilled"

[[record]]
input_smiles = "CCCCN(CCCC)CCCCCCOc1ccc(C(=O)/C=C/c2ccccc2)cc1"
group_label = "Not fulfilled"

[[record]]
input_smiles = "CCCCN(CCCC)CCOc1ccc(C(=O)/C=C/c2ccccc2)cc1"
group_label = "Not fulfilled"


Below: the item to evaluate.
Test whether the compound CCN(CC)CCCCCCOc1ccc(C(=O)/C=C/c2ccccc2)cc1 records pIC50 of 5 or higher.
Not fulfilled
